The compounds listed here are annotated with their melting point.

>>> value_reported("O=C(OC(c1ccccc1)c1ccccc1)C(O)Cc1ccc(F)cc1 (centres undefined)")
"52 to 54 °C"
>>> value_reported("O=c1c2cccnc2n(-c2cccc(CO)c2)c(=O)n1Cc1cccnc1")
"197 to 198 °C"
>>> value_reported("Cc1noc(NS(=O)(=O)c2sc3ccc(Cl)cc3c2C)c1Br")
"153 to 155 °C"

Query :: Name the reported melting point value associated with the compound CC(C)Cc1cccc(CCCn2c(=O)c3c(Cl)cc(Cl)cc3n(Cc3ccccc3)c2=O)c1
Result :: 108 to 111 °C

Query :: Any idea what melting point was measured for COc1ccc(-c2ccccc2)cc1N1CCN(C(=O)Nc2cc3ccccc3nc2OC)CC1 ?
Result :: 122 to 123 °C

Query :: Given COc1cc(NC(=O)c2cc(C(C)C)c(C(C)C)s2)ccc1C(=O)O , state its recorded melting point.
Result :: 213 to 214 °C

Query :: Look up melting point for this compound: Cc1cc([N+](=O)[O-])c(C)nc1OC(F)F
Result :: 48 to 49 °C

Query :: melting point for CCCCc1ncc(C=C2C(=O)N(C)c3ccccc32)n1Cc1ccc(C(=O)O)cc1 ?
Result :: 185 to 188 °C

Query :: Given the entry COC(=O)c1cc(-c2ccc(F)c(C)c2)nn(CC=Cc2ccc(Cl)cc2)c1=O , report its measured melting point.
Result :: 138 to 139 °C

Query :: Suppose we examine the compound O=c1nc(-c2c[nH]c3ccccc23)sc2ccccc12 ; what melting point value has been reported?
Result :: 276 to 277 °C

Query :: Reported melting point, compound Oc1cnccc1CCCOc1cccnc1Oc1cccc(Br)c1 : ____
Result :: 116 to 118 °C

Query :: Which melting point value belongs to CC[Si](CC)(CC)c1ccc2c(c1)cc(C(=O)Nc1ccc(N3CCC3)nc1)n2Cc1cccc(F)c1 ?
Result :: 166 to 168 °C

Query :: Could you tell me which melting point is on file for C=C1/C(=C\C=C2/CCC[C@@]3(C)[C@H]2CC[C@@H]3[C@]2(C)C[C@H](CC(C)(C)O)CO2)C[C@@H](O)C[C@@H]1O ?
Result :: 128 °C

Query :: Item under review: c1cc(-c2cnn3cc(-c4ccc(OCCN5CCOCC5)cc4)cnc23)cs1 . Reported melting point?
Result :: 149 to 151 °C

Query :: Any idea what melting point was measured for O=C(O)c1cc([N+](=O)[O-])cn1C1CCCC1 ?
Result :: 195 to 198 °C

Query :: Entry CCCCCNc1ncnc2c(C)n[nH]c12 : reported melting point = ?
Result :: 158 °C

Query :: Entry O=C(c1cccnc1)c1cc2cc(Br)ccc2s1 : reported melting point = ?
Result :: 147 to 148 °C

Query :: What value of melting point has been reported for the following compound? CN1CC=C(CC(=O)N2c3ccccc3NC(=O)c3ccccc32)CC1
Result :: 200 to 201 °C

Query :: Could you share which melting point value was measured for CN1CCN(S(=O)(=O)c2cc(-c3csc(=Nc4ccccc4)n3C)ccc2Cl)CC1 ?
Result :: 156 to 158 °C

---

Listing of recorded melting point by entry.

>>> value_reported("Cn1cc(CC2CCN(CCN3c4cccc5cccc(c45)S3(=O)=O)CC2)c2cc(F)ccc21")
"150 to 152 °C"
>>> value_reported("Nc1ccc2c(c1)SC1=NCCCN12")
"186 °C"
>>> value_reported("Cn1nc(-c2cnc(N)nc2-c2ccccc2)ccc1=O")
"254 to 255 °C"

Query :: Which melting point reading was recorded for the molecule CCCN1C(=O)C(NC(=O)Nc2cccc(N(C)c3nnn[nH]3)c2)N=C(N2CCN(C)CC2)c2ccccc21 (single isomer, unassigned; (-)) ?
Result :: 141 to 142 °C

Query :: Sample OC1CCCc2nc3ccccc3c(NCCCC(c3ccccc3)c3ccccc3)c21 (stereo unspecified) — what was its melting point?
Result :: 147 to 148 °C

Query :: Given the molecule CC(C)(O)C(=O)c1ccc(F)cc1 , what is its reported melting point?
Result :: 131 °C

---

The entries below come with measured melting point values attached.

Query :: Given the compound Cn1cnc2nc(C#Cc3ccccc3)nn2c1=S , what is its reported melting point?
Result :: 290 to 295 °C

Query :: Give its melting point value. Item: CC(NC(=O)OC(C)(C)C)C(=O)NC1CCN(Cc2ccccc2)C1 (stereo not given)
Result :: 83 to 85 °C

Query :: Data request, read-out melting point, for CC(=O)OC(C(=O)N1C(Cc2ccccc2)COC1(C)C)c1ccc(-c2ccc(-c3ccccc3)cc2)o1 (stereo not given)
Result :: 120 to 128 °C

Query :: Please look up its melting point: Cc1cc(O)c(C)c(C)c1OC(=O)C(C)(C)C
Result :: 88 to 112 °C

Query :: So what's the measured melting point for this one? Cc1ccc(C(=O)c2cc([N+](=O)[O-])ccc2N2CCC(C)CC2)cc1
Result :: 86 °C

---

Listing of entries alongside the reported melting point.

As a guide, the following entries are already answered.
>>> value_reported("CCCCOc1ccc(S(=O)(=O)C2(C(=O)O)CCN(Cc3ccc(Cl)c(Cl)c3)CC2)cc1")
"257 °C"
>>> value_reported("CC(=O)OCCSCCCC(=O)NC/C=C\\COc1cc(CN2CCCCC2)ccn1")
"36 to 40 °C"

Would you kindly look at the next entry?
Query :: Would you kindly share the measured melting point for Cc1nc(=O)n(-c2cc(C(=O)OC(C)C)c(Cl)cc2F)c(N)c1C#N ?
Result :: 255 to 257 °C

---

// reported melting point for each item listed

Query :: Can you share its melting point? I mean this compound: COc1c(N)ccc2c1C(CCNC(C)=O)CC2 (stereo unspecified)
Result :: 130 to 132 °C

Query :: Would you mind telling me what melting point value was observed for O=C1c2cc(S(=O)(=O)N3CCCCC3)ccc2SC12CC2 ?
Result :: 156 to 157 °C

Query :: Given the compound Cc1ccc(N2CCN(c3cccc(Cl)c3)C2C(Cl)(Cl)Cl)cc1 (stereo unspecified) , what is its reported melting point?
Result :: 34 to 36 °C

Query :: For the compound shown here, Fc1ccc(Cn2c(NC3CCN(CCSc4nc5cccnc5s4)CC3)nc3ccccc32)cc1 , give the reported melting point.
Result :: 160 °C

Query :: Given Cc1cccc(Sc2nc(C#N)c(C#N)nc2Cl)c1 , state its recorded melting point.
Result :: 117 to 119 °C

Query :: Quick one: melting point of COC(=O)c1cc(-c2ccc3c(c2)c2cc(-c4ccc(Cl)cc4Cl)c(=O)n(C)c2n3C)[nH]n1 ?
Result :: 290 to 292 °C

Query :: Which value of melting point has been reported for COC(=O)c1sc(-c2ccccc2)cc1N=NN(C)C in the records?
Result :: 92 to 94 °C

Query :: What melting point value was documented for this compound, COCCc1nc2c(N)nc3cc(Br)ccc3c2s1 ?
Result :: 172 to 175 °C

Query :: For the compound shown here, CC(C)(C)NNC(=O)C(C)(C)C , give the reported melting point.
Result :: 97 to 105 °C

Query :: Any idea what its melting point is? The compound is O=C(NCc1nc(O)cc(O)n1)c1cccs1
Result :: 270 to 275 °C

Query :: Name the reported melting point value associated with the compound CCC(=O)C(=Cc1ccc(C#N)cc1)C(=O)CC
Result :: 59 to 60 °C

---

Readout: melting point

These solved cases illustrate the format of a correct answer.
>>> value_reported("COc1ccc(-c2nn(Cc3ccc(Cl)cc3)c(=S)cc2-c2ccncc2)cc1")
"144 to 145 °C"
>>> value_reported("CS(=O)(=O)c1ccc(-c2cnn(-c3cccc(Cl)c3)c(=O)c2C2CCCC2)cc1")
"155 to 157 °C"
>>> value_reported("O=C(O)COc1cccc2c1Cc1sc(SCCCC(c3ccccc3)c3ccccc3)nc1-2")
"110 to 112 °C"
>>> value_reported("CCCc1c(C(=O)N(C)Cc2ccc3c(Br)c(O)ccc3c2)cnn1-c1ccccc1")
"205 to 207 °C"

Query :: // query melting point value for entry CCn1ncnc1COc1nc2c(cnn2-c2ccccc2)cc1C(C)(C)C
Result :: 150 to 152 °C

---

Readout: melting point

>>> value_reported("C=Cc1cc(OCOCCOC)c(OCOCCOC)c(Cl)c1Cl")
"60 °C"
>>> value_reported("c1cc(OCC2CO2)c2cn[nH]c2c1 (stereo unspecified)")
"60 °C"
>>> value_reported("COCCOc1ccc(-c2cncc(C#N)c2Nc2ccc3[nH]ccc3c2C)cc1OC")
"208 to 210 °C"
>>> value_reported("N#Cc1ccc(-c2c[nH]nc2C(F)(F)F)cc1SCC1CCC1")
"102 to 103 °C"
>>> value_reported("C[C@H](NC(=O)CCCCc1ccccc1)C(=O)N[C@H](CCC(=O)O)C(=O)O")
"135 to 140 °C"

Query :: Entry under review: C#CCOc1ncc(Cl)cc1OC . Reported melting point?
Result :: 62 to 64 °C

Query :: Which value of melting point has been reported for COc1ccc(C(=O)c2cccc(S(N)(=O)=O)c2)cc1 in the records?
Result :: 119 to 122 °C

Query :: Data request, read-out melting point, for C#CCN1C(=O)COc2cc(F)c(-c3ccc(C(F)(F)F)n(C)c3=O)cc21
Result :: 166 to 168 °C
